Consider the following variants and their measured self-cleavage readings.
B1: CPEB3 Ribozyme (parent)
chain: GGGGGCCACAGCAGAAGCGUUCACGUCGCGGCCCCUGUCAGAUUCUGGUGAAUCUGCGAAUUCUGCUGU

# Variants of: B1
# procedureText: self-cleavage, relative activity (ratio to wild type); higher = more cleavage; co-transcriptional
Give a plain numeric answer without units written out.

- mutantDesignation: "A15C U21A"
  recordedMeasurement: 0.791

Please look up its self-cleavage: C32U A51C 0.964

Please look up its self-cleavage: A16U G28C 0.166

Please look up its self-cleavage: G2A G11C 0.0914

Please look up its self-cleavage: G3A G28A 0.113

Please look up its self-cleavage: U26A C54U 0.909

Please look up its self-cleavage: G3U C24U 0.0674

Please look up its self-cleavage: U38C A51G 0.88

Please look up its self-cleavage: U38C A60C 0.293

Please look up its self-cleavage: C7G U53C 0.217

Please look up its self-cleavage: A10U U69A 1.02

Please look up its self-cleavage: U62C C63U 0.795

Please look up its self-cleavage: C6A A42G 0.609

Please look up its self-cleavage: C32G A52C 0.435

Please look up its self-cleavage: G31C U38C 0.191

Please look up its self-cleavage: C57G C66A 0.308

Please look up its self-cleavage: U36A G58C 0.226

Please look up its self-cleavage: U44A A59U 0.725

Please look up its self-cleavage: C6U U46C 1

Please look up its self-cleavage: G14A C57G 0.258

Please look up its self-cleavage: U36C U53A 0.767

Please look up its self-cleavage: U38C U46C 0.966
